Values were extracted from patent US20240270821A1.

# targetOrTestSystem: human GcgR (Homo sapiens)
# Sequence (P47871 26-477): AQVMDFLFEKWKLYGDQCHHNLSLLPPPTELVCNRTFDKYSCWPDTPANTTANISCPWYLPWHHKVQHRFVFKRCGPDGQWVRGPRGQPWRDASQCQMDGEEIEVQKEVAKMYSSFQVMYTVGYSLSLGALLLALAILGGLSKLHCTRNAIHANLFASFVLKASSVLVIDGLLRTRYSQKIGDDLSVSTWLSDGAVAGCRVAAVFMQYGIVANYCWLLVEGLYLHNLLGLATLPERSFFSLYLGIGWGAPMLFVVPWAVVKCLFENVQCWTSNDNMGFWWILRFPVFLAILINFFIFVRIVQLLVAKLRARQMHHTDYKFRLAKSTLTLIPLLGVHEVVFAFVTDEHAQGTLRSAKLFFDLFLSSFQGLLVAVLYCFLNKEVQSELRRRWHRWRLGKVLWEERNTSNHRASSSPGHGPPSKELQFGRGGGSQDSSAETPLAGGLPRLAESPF
# experiment: Functional cAMP activity in the presence of 1% HSA
# Assay type: cell-based
# runParameters: read-out: cAMP Rel EC50, hGcgR
Starred links: 1 amine or outer side, 2 acyl side, 3 side chain; linkers in the order of their positions; H or OH if unused. Non-standard residues stand in square brackets, D forms with d. Groups on a side chain read outwards from the residue. *: point of attachment. C18 diacid = O=C(O)CCCCCCCCCCCCCCCCC(=O)*; αMePhe(2-F) = C[C@](N)(Cc1ccccc1F)C(=O)O; γGlu = O=C(O)[C@H](CCC(=O)[*:2])N[*:1]; αMe4Pal = C[C@](N)(Cc1ccncc1)C(=O)O; αMeY = C[C@](N)(Cc1ccc(O)cc1)C(=O)O; 4Pal = N[C@@H](Cc1ccncc1)C(=O)O; αMeL = CC(C)C[C@](C)(N)C(=O)O; αMeS = C[C@](N)(CO)C(=O)O; Orn = NCCC[C@H](N)C(=O)O; AEEA = NCCOCCOCC(=O)O; Aib = CC(C)(N)C(=O)O
Decide using EC50 alone. Strictly below 1000 nM: rule met. Equal to or above 1000 nM: rule not met.

H-Y[Aib]QGTFTSD[4Pal]SQ[αMeL]LD[Orn]K([γGlu-γGlu-C18 diacid])AQ[αMe4Pal]AFIEYLIE[Aib]GPSSGAPPPSGSEE-NH2 [Example 937]	rule not met
H-Y[Aib]QGTFTSDFS[Orn][αMeL]LDKK([AEEA-γGlu-C18 diacid])AQ[Aib]AFIEYLLEGGPSSGAPPPGGSG-NH2 [Example 64]	rule met
H-Y[Aib]QGT[αMePhe(2-F)]TSD[4Pal][αMeS]I[αMeL]LD[Orn]K([AEEA-γGlu-C18 diacid])AA[Aib]EFI[dE][αMeY]LIEGGPSSGAPPPSGTEQ-OH [Example 726]	rule met
H-Y[Aib]QGTFTSD[4Pal]SQ[αMeL]LDKK([γGlu-γGlu-C18 diacid])AQ[αMe4Pal]AFIE[αMe4Pal]LIE[Aib]GPSSGEPPPSGE-NH2 [Example 1123]	rule met
H-Y[Aib]QGTFTSD[4Pal]S[Orn][αMeL]LDKK([Glu-γGlu-C18 diacid])AQ[αMe4Pal]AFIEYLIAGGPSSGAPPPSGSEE-NH2 [Example 1060]	rule not met

## Task Here's an entry: H-Y[Aib]QGT[αMePhe(2-F)]TSD[4Pal]SI[αMeL]LD[Orn]K([AEEA-γGlu-C18 diacid])AQ[αMe4Pal]EFI[dE][αMeY]LAEGGPSSGAPPPSGS-NH2 [Example 642] . Is its EC50 below 1000 nM?
## Result rule met

## Task Here's an entry: H-Y[Aib]QGT[αMePhe(2-F)]TSD[4Pal]SILLDKK([γGlu-γGlu-C18 diacid])AQ[Aib]AFIEYLEEGGPSSGAPPPEGTE-NH2 [Example 659] . Is its EC50 below 1000 nM?
## Result rule met
